METRIC: melting point

These solved cases illustrate the format of a correct answer.
| INPUT_SMILES | melting point |
| --- | --- |
| Br.COc1ccc(CN2CCN(C(=O)c3cc4cc(Oc5ccc(NC(=O)c6cc7cc(Br)ccc7[nH]6)cn5)ccc4n3C)CC2)cc1 | 263 to 265 °C |
| Br.CCOc1ccc(CN2CCN(C(=O)c3cc4cc(Oc5cc(C)c(N(C)C(=O)c6ccc(C(F)(F)F)cc6)cn5)ccc4n3C)CC2)cc1 | 163 to 166 °C |
| Br.Br.Cn1c(C(=O)N2CCN(Cc3cccnc3)CC2)cc2cc(Oc3ccc(NC(=O)c4ccc(C(F)(F)F)cc4)cn3)ccc21 | 201 to 204 °C |

Return value of melting point for input `Br.COc1ccc(CN2CCN(C(=O)c3cc4cc(Oc5ccc(N(C)C(=O)c6ccc(C(F)(F)F)cc6)cn5)ccc4n3C)CC2)cc1OC` , no commentary.
175 to 177 °C

Find the measured melting point of `Cl.Cn1c(C(=O)N2CCN(Cc3ccc(OC(CF)CF)cc3)CC2)cc2ccc(Oc3ccc(NC(=O)c4ccc(C(F)(F)F)cc4F)cn3)cc21` and report it.
267.3 to 267.7 °C

Look up and state reported melting point for `Cl.Cn1c(C(=O)N2CCN(Cc3ccc(OCC(F)(F)F)cc3)CC2)cc2ccc(Oc3ccc(NC(=O)c4ccc(C(F)(F)F)c(F)c4)cn3)cc21`
259 to 263.2 °C
